Values were extracted from the METLIN SMRT retention time set (Domingo-Almenara et al. 2019).

test: gradient 5% acetonitrile 3 min, to 50% in 2 min, to 85% in 15 min, held 3 min, 100 µL/min; conditions: column: Zorbax Extend-C18 2.1 x 50 mm; eluents: water / acetonitrile, 0.1% formic acid
quantity.kind: RP-LC retention time (s)

Some compounds with known RP-LC retention time results, for comparison:
CC(=O)Nc1ccc(C(=O)N2CCN(c3cc(-c4ccc(Cl)cc4)[nH]n3)CC2)cc1; 708
O=C(NC1CCN(c2cc(-c3cccnc3)[nH]n2)CC1)c1ccc(F)c(Cl)c1; 643
CCCN1CN=C(Nc2nc(C)c3cccc(OC)c3n2)NC1; 644
O=C(Cn1cccc1-c1nc(-c2ccc3c(c2)OCO3)no1)Nc1ccc(F)c(Cl)c1; 1030
Cc1cccc(CN2CC(=O)N(c3ccccc3)[C@@H]3CS(=O)(=O)C[C@@H]32)c1; 800
COc1ccc(-c2nc(C3CC(=O)N(c4ccc(F)cc4)C3)no2)cc1OC (centres undefined); 884
Cc1sc(-c2cc(C(F)(F)F)on2)cc1S(=O)(=O)Nc1ccc(F)cc1; 1120

A = COc1ccccc1OC(C)C(=O)N(Cc1ccc(C)o1)C1CCS(=O)(=O)C1 (centres undefined)
B = CC(C)CCNC(=O)C1CCCN(C(=O)c2cc(-c3ccncc3)n[nH]2)C1 (centres undefined)
Exercise: Form field 'greater RP-LC retention time' accepts A or B ; which applies? Give the chosen item's label as your response.
Key: A
(A: 847 s, B: 591 s)
